Molecular target: purified S1P(983)-C (Cricetulus griseus, UniProt Q9Z2A8, T875N)
Construct: Truncated S1P (amino acids 1-983); GGR linker (NotI site); made in house; host or cells: SRD-12B cells (mutant CHO cells lacking S1P) stably transfected with pCMV-S1P(983)-Myc-His (TR-3117, 'S1P(983) cells'); secreted into the medium and purified on Ni-NTA
Sequence (Q9Z2A8 187-983 T875N): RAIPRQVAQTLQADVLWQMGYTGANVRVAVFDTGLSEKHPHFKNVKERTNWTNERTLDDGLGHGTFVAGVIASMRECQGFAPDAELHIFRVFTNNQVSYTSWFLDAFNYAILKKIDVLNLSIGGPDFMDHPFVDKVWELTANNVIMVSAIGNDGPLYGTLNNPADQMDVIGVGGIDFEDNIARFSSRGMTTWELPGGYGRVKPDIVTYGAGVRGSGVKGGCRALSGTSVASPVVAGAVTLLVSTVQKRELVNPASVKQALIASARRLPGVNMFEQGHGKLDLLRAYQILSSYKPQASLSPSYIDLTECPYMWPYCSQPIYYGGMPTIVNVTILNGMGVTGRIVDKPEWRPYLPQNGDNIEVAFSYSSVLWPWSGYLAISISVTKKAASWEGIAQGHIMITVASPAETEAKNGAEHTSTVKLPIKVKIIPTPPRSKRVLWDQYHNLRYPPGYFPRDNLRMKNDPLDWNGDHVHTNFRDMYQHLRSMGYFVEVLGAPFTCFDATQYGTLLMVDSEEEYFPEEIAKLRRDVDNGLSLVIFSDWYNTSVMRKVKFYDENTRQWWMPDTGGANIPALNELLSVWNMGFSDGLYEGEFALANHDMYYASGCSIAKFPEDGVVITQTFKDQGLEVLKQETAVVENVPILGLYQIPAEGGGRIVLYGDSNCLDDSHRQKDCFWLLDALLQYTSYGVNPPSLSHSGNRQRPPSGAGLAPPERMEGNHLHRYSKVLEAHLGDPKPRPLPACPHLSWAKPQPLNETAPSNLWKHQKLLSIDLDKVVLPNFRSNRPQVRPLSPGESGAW
Assay: Effect of protease inhibitors on S1P(983)-C mediated cleavage of Ac-VFRSLK-MCA
Type: biochemical, hamster
Settings: 1 mM; 100 μM Ac-VFRSLK-MCA, 37° C., 5 h
Classification field: enter Met for AMC Liberated values not below 700 pmol/tube, Not met for values below it.

Solved entries (count: 4):
Compound	Cat
NCCc1ccc(S(=O)(=O)F)cc1 [Pefabloc ®]	Met
O=S(=O)(F)Cc1ccccc1 [PMSF, phenylmethylsulfonyl fluoride]	Met
N=C(N)c1ccc(CS(=O)(=O)F)cc1 [APMSF]	Met
CC(=O)N[C@@H](CC(C)C)C(=O)N[C@@H](CC(C)C)C(=O)N[C@H](C=O)CCCNC(=N)N [Leupeptin]	Met

Here is another compound to look at.
Hi, just wondering whether O[C@H](CS)[C@H](O)CS (racemic) [Dithiothreitol] shows AMC Liberated of 700 pmol/tube or higher.
Not met
